Exercise: for every item that follows, state its recorded IC50, SKBR-3 viability, MMAF conjugate, second unlabelled column (+/- human transferrin).
- system_name: CD71 on SK-BR-3 cells (human, UniProt P02786 1-760)
- Sequence (P02786 whole entry): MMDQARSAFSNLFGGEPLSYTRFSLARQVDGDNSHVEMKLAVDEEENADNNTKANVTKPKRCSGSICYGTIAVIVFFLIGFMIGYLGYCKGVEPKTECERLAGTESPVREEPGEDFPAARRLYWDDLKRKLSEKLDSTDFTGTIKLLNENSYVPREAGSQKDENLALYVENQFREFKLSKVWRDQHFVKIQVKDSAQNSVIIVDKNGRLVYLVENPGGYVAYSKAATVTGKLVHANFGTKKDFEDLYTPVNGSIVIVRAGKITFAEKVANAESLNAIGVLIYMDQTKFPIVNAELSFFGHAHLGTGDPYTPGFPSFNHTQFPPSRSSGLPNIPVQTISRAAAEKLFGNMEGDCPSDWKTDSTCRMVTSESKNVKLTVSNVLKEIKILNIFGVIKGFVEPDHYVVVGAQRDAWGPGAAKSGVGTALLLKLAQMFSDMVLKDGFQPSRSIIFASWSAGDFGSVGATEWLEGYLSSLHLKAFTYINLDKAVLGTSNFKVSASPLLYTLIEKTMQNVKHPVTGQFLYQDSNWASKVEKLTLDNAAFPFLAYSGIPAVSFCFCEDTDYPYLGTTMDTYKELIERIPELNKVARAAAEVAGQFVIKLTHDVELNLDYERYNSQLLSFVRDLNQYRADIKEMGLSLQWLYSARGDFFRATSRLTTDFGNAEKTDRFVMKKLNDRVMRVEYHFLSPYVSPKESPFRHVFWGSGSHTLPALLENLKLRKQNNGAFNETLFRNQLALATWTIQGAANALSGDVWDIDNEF
- measurement_protocol: cell-based or functional assay
One number for each entry, in nM.

Below are some binders; for each one, tell me its IC50, SKBR-3 viability, MMAF conjugate, second unlabelled column (+/- human transferrin).
1. SEQ ID NO 146 (designed binder, FN3 domain) MLPAPKNLVVSRVTEDSARLSWTAPDAAFDSFYIAYAEPRPDGEAIVLTVPGSERSYDLTGLKPGTEYSVLIHGVKGGLLSSPLSAIFTT
2. SEQ ID NO 278 (designed binder, FN3 domain) MLPAPKNLVVSRVTEDSARLSWTAPDAAFDSFPIAYAEPRPDGEAIVLTVPGSERSYDLTGLKPGTEYSVLIHGVKGGHLSDPLSAIFTT
3. SEQ ID NO 261 (designed binder, FN3 domain) MLPAPKNLVVSRVTEDSARLSWTAPDAAFDSFTIVYGEWGVPGEAIVLTVPGSERSYDLTGLKPGTEYDVWIEGVKGGDLSWPLSAIVTT

output:
3.46
3.7
31.2
